- Tested on: L1210 leukemia ip in BDF1 mice, survival T/C
- protocol: NCI In Vivo Anticancer Drug Screen. Data for tumor model L1210 Leukemia (intraperitoneal) in B6D2F1 (BDF1) mice
- condition.description: endpoint: mean survival time; dose: 200.0 mg/kg/injection; schedule: Q04DX003 (ip); vehicle: saline with Tween-80; higher = longer survival
Inconclusive results and toxic doses are left out.
So I've got a bunch of compounds here, and I need their T/C values.

Query: Name the recorded T/C for "Cc1c(Cl)cccc1NC(=O)Nc1ccc(S(N)(=O)=O)cc1" .
Result: 95 % of control

Query: Name the recorded T/C for O=C1NC(=O)C2CC=CCC12 (configuration not stated) .
Result: 106 % of control

Query: Name the recorded T/C for OC12Cc3ccccc3C1=NN(c1ccccc1)C2c1ccccc1 (configuration not stated) .
Result: 97 % of control

Query: Name the recorded T/C for CC1(c2ccccc2)CCc2ccccc21 (configuration not stated) .
Result: 98 % of control

Query: Name the recorded T/C for "O=C(O)/C=C\C(=O)Nc1ccc(F)cc1" .
Result: 101 % of control

Query: Name the recorded T/C for Brc1ccc(N2N=NC3CNCC32)cc1 (configuration not stated) .
Result: 105 % of control

Query: Name the recorded T/C for "O=C(Cc1ccccc1)NC1=C(Cl)C(=O)c2ccccc2C1=O" .
Result: 101 % of control

Query: Name the recorded T/C for "Brc1ccccc1N=Nc1ccccc1Br" .
Result: 91 % of control

Query: Name the recorded T/C for CCCCNC(=O)C1C2C=CC(CC2)C1C(=O)NCCCC (configuration not stated) .
Result: 100 % of control

Query: Name the recorded T/C for "CSc1ccc(NC(=O)Oc2cc3ccccc3cc2C(=O)Nc2ccc(Cl)cc2)cc1" .
Result: 92 % of control

Query: Name the recorded T/C for "N#CCC[P+](CCC#N)(CCC#N)CCCCCC[P+](CCC#N)(CCC#N)CCC#N" .
Result: 93 % of control

Query: Name the recorded T/C for "CCOC(=O)c1cc(N)c(N2CCCC2)cc1Cl" .
Result: 93 % of control

----------
So I've got a bunch of compounds here, and I need their T/C values.
- Test system: L1210 leukemia ip in BDF1 mice, survival T/C
- protocol: NCI In Vivo Anticancer Drug Screen. Data for tumor model L1210 Leukemia (intraperitoneal) in B6D2F1 (BDF1) mice
- condition.description: endpoint: mean survival time; dose: 100.0 mg/kg/injection; schedule: Q04DX003 (ip); vehicle: saline; higher = longer survival
- Experimental: The antitumor activity of compounds was measured in mice bearing transplantable tumors. Survival or tumor size were measured and the results are expressed as the measurement made in the treated group (T) divided by the measurement made in the vehicle treated control group (C). The tumor model used in this assay is L1210 Leukemia (intraperitoneal) in B6D2F1 (BDF1) mice
Inconclusive results and toxic doses are left out.

Query: Name the recorded T/C for CCCN(CCC)CC(C)O (centres undefined) .
Result: 93 % of control

Query: Name the recorded T/C for "CCCCCCCC(=O)CCCCC" .
Result: 98 % of control

Query: Name the recorded T/C for "N#CCC(=O)NCc1cnccn1" .
Result: 103 % of control

Query: Name the recorded T/C for CCC(N)Cc1ccc(OC)c(OC)c1 (centres undefined) .
Result: 93 % of control

Query: Name the recorded T/C for O=c1[nH]cnc2c1nnn2C1CC(CO)C(O)C1O (centres undefined) .
Result: 92 % of control

Query: Name the recorded T/C for "S=C(Nc1ccc(Cl)c(Cl)c1)SCc1ccc(Cl)cc1" .
Result: 104 % of control

Query: Name the recorded T/C for COC(=O)C1C(O)C(C)C(O)OC1C(C)C(O)C(C)/C=C\C=C(/C)C(=O)Nc1c(C)c(OC(C)=O)c2c(c1O)C(=O)C(C)=C1OCOC(/C(C)=C/C(C)=O)=C12 (centres undefined) .
Result: 95 % of control

Query: Name the recorded T/C for "CCCCCCCCCCCCNC(=O)C[n+]1ccc(C(N)=O)cc1" .
Result: 94 % of control

Query: Name the recorded T/C for "CN(C)c1nc(N)nc(Nc2ccc(Br)cc2)c1N=O" .
Result: 107 % of control

Query: Name the recorded T/C for "O=C(CCCN1CCC(O)CC1)c1ccccc1" .
Result: 90 % of control

Query: Name the recorded T/C for CC(=O)OC1CCP(C)(=O)C1 (centres undefined) .
Result: 98 % of control

Query: Name the recorded T/C for "CCOC(=O)c1ccc(NC(=O)Nc2cc(Cl)ccc2OC)cc1" .
Result: 109 % of control

Query: Name the recorded T/C for "O=Nc1c(N=O)c(N=O)c(N=O)c(N=O)c1N=O" .
Result: 90 % of control

Query: Name the recorded T/C for O=C1C2CCCCC2C(=O)N1O (centres undefined) .
Result: 102 % of control

Query: Name the recorded T/C for "NNC(=O)c1cc2ccncc2c2sc3ccccc3c12" .
Result: 92 % of control

Query: Name the recorded T/C for "COc1cc(OCc2ccccc2)c([N+](=O)[O-])cc1OC" .
Result: 116 % of control

Query: Name the recorded T/C for "COc1cc(/C=C(/NC(=O)c2ccccc2)C(=O)O)ccc1O" .
Result: 96 % of control

Query: Name the recorded T/C for "CCN(CC)CCCNc1cc(C)c(C)cc1[N+](=O)[O-]" .
Result: 100 % of control

Query: Name the recorded T/C for "Nc1ncnc(N)c1NC(=O)c1cccc(C(=O)c2ccccc2)c1" .
Result: 101 % of control

Query: Name the recorded T/C for CC(O)COCCOCCO (centres undefined) .
Result: 96 % of control

Query: Name the recorded T/C for CC(C)NCC1CCCO1 (centres undefined) .
Result: 94 % of control

Query: Name the recorded T/C for "C=CC[n+]1cccc(S(=O)(=O)[O-])c1" .
Result: 101 % of control

Query: Name the recorded T/C for "CCCCn1cnc(=O)c2[nH]cnc21" .
Result: 107 % of control

Query: Name the recorded T/C for "COC(=O)Cc1cc(=O)c2ccccc2[nH]1" .
Result: 96 % of control
